The reader will find reported Retention_time values listed item by item below.
ASSAY_PROTOCOL: Retention time of the compound by reverse-phase HPLC method
Type: physicochemical
Record the value in min, omitting the unit from your answer.

Below, each entry is followed by its recorded Retention_time result.
- TEST_SMILES: "CN(C)CCCNC(=O)CCNC(=O)c1cc(NC(=O)c2cc(NC(=O)CCNC(=O)c3cc(NC(=O)c4cc(NC(=O)c5cc(NC(=O)CCCNC(=O)c6cc(NC(=O)c7cc(NC(=O)c8nc(NC(=O)CCNC(=O)c9nc(NC(=O)c%10nc(NC(=O)CCNC(=S)Nc%11ccc(-c%12c%13ccc(=O)cc-%13oc%13cc(O)ccc%12%13)c(C(=O)O)c%11)cn%10C)cn9C)cn8C)cn7C)cn6C)cn5C)cn4C)cn3C)cn2C)cn1C"
  Retention_time, min: 10.97
- TEST_SMILES: "CN(C)CCCNC(=O)CCNC(=O)c1cc(NC(=O)c2cc(NC(=O)CCNC(=O)c3cc(NC(=O)c4cc(NC(=O)c5cc(NC(=O)CCCNC(=O)c6cc(NC(=O)c7cc(NC(=O)c8cc(NC(=O)CCNC(=O)c9nc(NC(=O)c%10cc(NC(=O)CCNC(=S)Nc%11ccc(-c%12c%13ccc(=O)cc-%13oc%13cc(O)ccc%12%13)c(C(=O)O)c%11)cn%10C)cn9C)cn8C)cn7C)cn6C)cn5C)cn4C)cn3C)cn2C)cn1C"
  Retention_time, min: 11.73
- TEST_SMILES: "CN(C)CCCNC(=O)CCNC(=O)c1cc(NC(=O)c2cc(NC(=O)CCNC(=O)c3cc(NC(=O)c4cc(NC(=O)c5cc(NC(=O)CCCNC(=O)c6nc(NC(=O)c7nc(NC(=O)c8nc(NC(=O)CCNC(=O)c9nc(NC(=O)c%10nc(NC(=O)CCNC(=S)Nc%11ccc(-c%12c%13ccc(=O)cc-%13oc%13cc(O)ccc%12%13)c(C(=O)O)c%11)cn%10C)cn9C)cn8C)cn7C)cn6C)cn5C)cn4C)cn3C)cn2C)cn1C"
  Retention_time, min: 8.86

Lab note: next compound to report on.
Give its Retention_time value. Item: `CN(C)CCCNC(=O)CCNC(=O)c1cc(NC(=O)c2cc(NC(=O)CCNC(=O)c3cc(NC(=O)c4cc(NC(=O)c5cc(NC(=O)CCCNC(=O)c6cc(NC(=O)c7cc(NC(=O)c8cc(NC(=O)CCNC(=O)c9nc(NC(=O)c%10nc(NC(=O)CCNC(=S)Nc%11ccc(-c%12c%13ccc(=O)cc-%13oc%13cc(O)ccc%12%13)c(C(=O)O)c%11)cn%10C)cn9C)cn8C)cn7C)cn6C)cn5C)cn4C)cn3C)cn2C)cn1C`
11.4

###

ASSAY_PROTOCOL: Drug localization in nucleus of human SW480 cells at 1 uM after 2 hrs by DAPI-fluoresecence based confocal laser microscopy
Format: ADME, subcellular
DETAILS: sw480, 2 h

- TEST_SMILES: "CN(C)CCCNC(=O)CCNC(=O)c1cc(NC(=O)c2cc(NC(=O)CCNC(=O)c3cc(NC(=O)c4cc(NC(=O)c5cc(NC(=O)CCCNC(=O)c6cc(NC(=O)c7cc(NC(=O)c8nc(NC(=O)CCNC(=O)c9nc(NC(=O)c%10nc(NC(=O)CCNC(=S)Nc%11ccc(-c%12c%13ccc(=O)cc-%13oc%13cc(O)ccc%12%13)c(C(=O)O)c%11)cn%10C)cn9C)cn8C)cn7C)cn6C)cn5C)cn4C)cn3C)cn2C)cn1C"
  Drug uptake: "Active"
- TEST_SMILES: "CN(C)CCCNC(=O)CCNC(=O)c1cc(NC(=O)c2cc(NC(=O)CCNC(=O)c3cc(NC(=O)c4cc(NC(=O)c5cc(NC(=O)CCCNC(=O)c6nc(NC(=O)c7nc(NC(=O)c8nc(NC(=O)CCNC(=O)c9nc(NC(=O)c%10nc(NC(=O)CCNC(=S)Nc%11ccc(-c%12c%13ccc(=O)cc-%13oc%13cc(O)ccc%12%13)c(C(=O)O)c%11)cn%10C)cn9C)cn8C)cn7C)cn6C)cn5C)cn4C)cn3C)cn2C)cn1C"
  Drug uptake: "Active"
- TEST_SMILES: "CN(C)CCCNC(=O)CCNC(=O)c1cc(NC(=O)c2cc(NC(=O)CCNC(=O)c3cc(NC(=O)c4cc(NC(=O)c5cc(NC(=O)CCCNC(=O)c6cc(NC(=O)c7cc(NC(=O)c8cc(NC(=O)CCNC(=O)c9nc(NC(=O)c%10cc(NC(=O)CCNC(=S)Nc%11ccc(-c%12c%13ccc(=O)cc-%13oc%13cc(O)ccc%12%13)c(C(=O)O)c%11)cn%10C)cn9C)cn8C)cn7C)cn6C)cn5C)cn4C)cn3C)cn2C)cn1C"
  Drug uptake: "Active"

###

ASSAY_PROTOCOL: Drug localization in nucleus of human LS180 cells at 1 uM after 2 hrs by DAPI-fluoresecence based confocal laser microscopy
Format: ADME, subcellular
DETAILS: ls180, 2 h

- TEST_SMILES: "CN(C)CCCNC(=O)CCNC(=O)c1cc(NC(=O)c2cc(NC(=O)CCNC(=O)c3cc(NC(=O)c4cc(NC(=O)c5cc(NC(=O)CCCNC(=O)c6nc(NC(=O)c7nc(NC(=O)c8nc(NC(=O)CCNC(=O)c9nc(NC(=O)c%10nc(NC(=O)CCNC(=S)Nc%11ccc(-c%12c%13ccc(=O)cc-%13oc%13cc(O)ccc%12%13)c(C(=O)O)c%11)cn%10C)cn9C)cn8C)cn7C)cn6C)cn5C)cn4C)cn3C)cn2C)cn1C"
  Drug uptake: "Active"
- TEST_SMILES: "CN(C)CCCNC(=O)CCNC(=O)c1cc(NC(=O)c2cc(NC(=O)CCNC(=O)c3cc(NC(=O)c4cc(NC(=O)c5cc(NC(=O)CCCNC(=O)c6cc(NC(=O)c7cc(NC(=O)c8cc(NC(=O)CCNC(=O)c9nc(NC(=O)c%10cc(NC(=O)CCNC(=S)Nc%11ccc(-c%12c%13ccc(=O)cc-%13oc%13cc(O)ccc%12%13)c(C(=O)O)c%11)cn%10C)cn9C)cn8C)cn7C)cn6C)cn5C)cn4C)cn3C)cn2C)cn1C"
  Drug uptake: "Active"
- TEST_SMILES: "CN(C)CCCNC(=O)CCNC(=O)c1cc(NC(=O)c2cc(NC(=O)CCNC(=O)c3cc(NC(=O)c4cc(NC(=O)c5cc(NC(=O)CCCNC(=O)c6cc(NC(=O)c7cc(NC(=O)c8nc(NC(=O)CCNC(=O)c9nc(NC(=O)c%10nc(NC(=O)CCNC(=S)Nc%11ccc(-c%12c%13ccc(=O)cc-%13oc%13cc(O)ccc%12%13)c(C(=O)O)c%11)cn%10C)cn9C)cn8C)cn7C)cn6C)cn5C)cn4C)cn3C)cn2C)cn1C"
  Drug uptake: "Active"

###

ASSAY_PROTOCOL: Retention time of the compound by reverse-phase HPLC method
Type: physicochemical
MEASURED_ATTRIBUTE: Retention_time

Which Retention_time value is on record for `CN(C)CCCNC(=O)CCNC(=O)c1cc(NC(=O)c2cc(NC(=O)CCNC(=O)c3cc(NC(=O)c4cc(NC(=O)c5cc(NC(=O)CCCNC(=O)c6cc(NC(=O)c7nc(NC(=O)c8nc(NC(=O)CCNC(=O)c9nc(NC(=O)c%10nc(NC(=O)CCNC(=S)Nc%11ccc(-c%12c%13ccc(=O)cc-%13oc%13cc(O)ccc%12%13)c(C(=O)O)c%11)cn%10C)cn9C)cn8C)cn7C)cn6C)cn5C)cn4C)cn3C)cn2C)cn1C` ?
10.48 min

###

Reported values of logP for individual entries
ASSAY_PROTOCOL: Octanol water partition coefficient, log P of the compound by reverse-phase HPLC method
Format: physicochemical
API doc: respond with a numeric literal and nothing else, no unit.

Consider the worked cases shown below.
- TEST_SMILES: "CN(C)CCCNC(=O)CCNC(=O)c1cc(NC(=O)c2cc(NC(=O)CCNC(=O)c3cc(NC(=O)c4cc(NC(=O)c5cc(NC(=O)CCCNC(=O)c6nc(NC(=O)c7nc(NC(=O)c8nc(NC(=O)CCNC(=O)c9nc(NC(=O)c%10nc(NC(=O)CCNC(=S)Nc%11ccc(-c%12c%13ccc(=O)cc-%13oc%13cc(O)ccc%12%13)c(C(=O)O)c%11)cn%10C)cn9C)cn8C)cn7C)cn6C)cn5C)cn4C)cn3C)cn2C)cn1C"
  logP: 1.19
- TEST_SMILES: "CN(C)CCCNC(=O)CCNC(=O)c1cc(NC(=O)c2cc(NC(=O)CCNC(=O)c3cc(NC(=O)c4cc(NC(=O)c5cc(NC(=O)CCCNC(=O)c6cc(NC(=O)c7cc(NC(=O)c8nc(NC(=O)CCNC(=O)c9nc(NC(=O)c%10nc(NC(=O)CCNC(=S)Nc%11ccc(-c%12c%13ccc(=O)cc-%13oc%13cc(O)ccc%12%13)c(C(=O)O)c%11)cn%10C)cn9C)cn8C)cn7C)cn6C)cn5C)cn4C)cn3C)cn2C)cn1C"
  logP: 1.42
- TEST_SMILES: "CN(C)CCCNC(=O)CCNC(=O)c1cc(NC(=O)c2cc(NC(=O)CCNC(=O)c3cc(NC(=O)c4cc(NC(=O)c5cc(NC(=O)CCCNC(=O)c6cc(NC(=O)c7cc(NC(=O)c8cc(NC(=O)CCNC(=O)c9nc(NC(=O)c%10nc(NC(=O)CCNC(=S)Nc%11ccc(-c%12c%13ccc(=O)cc-%13oc%13cc(O)ccc%12%13)c(C(=O)O)c%11)cn%10C)cn9C)cn8C)cn7C)cn6C)cn5C)cn4C)cn3C)cn2C)cn1C"
  logP: 1.46
- TEST_SMILES: "CN(C)CCCNC(=O)CCNC(=O)c1cc(NC(=O)c2cc(NC(=O)CCNC(=O)c3cc(NC(=O)c4cc(NC(=O)c5cc(NC(=O)CCCNC(=O)c6cc(NC(=O)c7nc(NC(=O)c8nc(NC(=O)CCNC(=O)c9nc(NC(=O)c%10nc(NC(=O)CCNC(=S)Nc%11ccc(-c%12c%13ccc(=O)cc-%13oc%13cc(O)ccc%12%13)c(C(=O)O)c%11)cn%10C)cn9C)cn8C)cn7C)cn6C)cn5C)cn4C)cn3C)cn2C)cn1C"
  logP: 1.36

Let's switch to this molecule now.
Looking for the measured logP of `CN(C)CCCNC(=O)CCNC(=O)c1cc(NC(=O)c2cc(NC(=O)CCNC(=O)c3cc(NC(=O)c4cc(NC(=O)c5cc(NC(=O)CCCNC(=O)c6cc(NC(=O)c7cc(NC(=O)c8cc(NC(=O)CCNC(=O)c9nc(NC(=O)c%10cc(NC(=O)CCNC(=S)Nc%11ccc(-c%12c%13ccc(=O)cc-%13oc%13cc(O)ccc%12%13)c(C(=O)O)c%11)cn%10C)cn9C)cn8C)cn7C)cn6C)cn5C)cn4C)cn3C)cn2C)cn1C` , can you help?
1.5
